// reported shrunken log2 fold change per item
- System: Escherichia coli TOP10
- procedureText: shrunken log2 fold change of peptide-encoding DNA abundance (4.5 h post-induction vs induction); higher = less antimicrobial activity (less host growth inhibition)
- conditions: time post-induction: 4.5 h; library: site-saturation at positions 5, 18, 19, 20

[
  {
    "sequenceChain": "RRIRPRPPRLPRPRPRPWLPPRP",
    "shrunken log2 fold change": -0.0294
  },
  {
    "sequenceChain": "RRIRPRPPRLPRPRPRPKGQPRP",
    "shrunken log2 fold change": 0.205
  },
  {
    "sequenceChain": "RRIRERPPRLPRPRPRPGQTPRP",
    "shrunken log2 fold change": -0.0328
  },
  {
    "sequenceChain": "RRIRMRPPRLPRPRPRPPEDPRP",
    "shrunken log2 fold change": 1.66
  },
  {
    "sequenceChain": "RRIRSRPPRLPRPRPRPCYPPRP",
    "shrunken log2 fold change": -0.264
  },
  {
    "sequenceChain": "RRIRLRPPRLPRPRPRPSVDPRP",
    "shrunken log2 fold change": -0.462
  },
  {
    "sequenceChain": "RRIRIRPPRLPRPRPRPVQAPRP",
    "shrunken log2 fold change": 0.0348
  },
  {
    "sequenceChain": "RRIRKRPPRLPRPRPRPQKVPRP",
    "shrunken log2 fold change": -0.0143
  },
  {
    "sequenceChain": "RRIRLRPPRLPRPRPRPPGDPRP",
    "shrunken log2 fold change": 0.834
  },
  {
    "sequenceChain": "RRIRNRPPRLPRPRPRPGMPPRP",
    "shrunken log2 fold change": -0.107
  },
  {
    "sequenceChain": "RRIRKRPPRLPRPRPRPRKWPRP",
    "shrunken log2 fold change": 0.448
  },
  {
    "sequenceChain": "RRIRLRPPRLPRPRPRPKDSPRP",
    "shrunken log2 fold change": -0.139
  },
  {
    "sequenceChain": "RRIRWRPPRLPRPRPRPCYIPRP",
    "shrunken log2 fold change": -0.46
  },
  {
    "sequenceChain": "RRIRFRPPRLPRPRPRPRPPPRP",
    "shrunken log2 fold change": 1.36
  },
  {
    "sequenceChain": "RRIRTRPPRLPRPRPRPPAYPRP",
    "shrunken log2 fold change": -0.0816
  }
]

----------
// reported shrunken log2 fold change per item
- System: Escherichia coli TOP10
- procedureText: shrunken log2 fold change of peptide-encoding DNA abundance (4.5 h post-induction vs induction); higher = less antimicrobial activity (less host growth inhibition)
- conditions: time post-induction: 4.5 h; library: site-saturation at positions 5, 18, 19, 20
testReadout: shrunken log2 fold change

[
  {
    "sequenceChain": "RRIRQRPPRLPRPRPRPRIPPRP",
    "dataValue": 0.206
  },
  {
    "sequenceChain": "RRIRRRPPRLPRPRPRPPKQPRP",
    "dataValue": 0.459
  },
  {
    "sequenceChain": "RRIRQRPPRLPRPRPRPAPLPRP",
    "dataValue": 0.451
  },
  {
    "sequenceChain": "RRIRMRPPRLPRPRPRPKWAPRP",
    "dataValue": 0.0251
  },
  {
    "sequenceChain": "RRIRCRPPRLPRPRPRPRKMPRP",
    "dataValue": -0.00382
  },
  {
    "sequenceChain": "RRIRGRPPRLPRPRPRPAGEPRP",
    "dataValue": 0.479
  },
  {
    "sequenceChain": "RRIRVRPPRLPRPRPRPMDRPRP",
    "dataValue": -0.308
  },
  {
    "sequenceChain": "RRIRQRPPRLPRPRPRPIDPPRP",
    "dataValue": 0.0328
  },
  {
    "sequenceChain": "RRIRHRPPRLPRPRPRPMGEPRP",
    "dataValue": -0.0135
  },
  {
    "sequenceChain": "RRIRHRPPRLPRPRPRPPATPRP",
    "dataValue": 0.29
  },
  {
    "sequenceChain": "RRIRNRPPRLPRPRPRPIDPPRP",
    "dataValue": -0.127
  },
  {
    "sequenceChain": "RRIRVRPPRLPRPRPRPRFCPRP",
    "dataValue": -0.0488
  },
  {
    "sequenceChain": "RRIRCRPPRLPRPRPRPWQSPRP",
    "dataValue": -0.127
  },
  {
    "sequenceChain": "RRIRMRPPRLPRPRPRPAASPRP",
    "dataValue": 1.25
  },
  {
    "sequenceChain": "RRIRWRPPRLPRPRPRPNADPRP",
    "dataValue": 0.466
  },
  {
    "sequenceChain": "RRIRERPPRLPRPRPRPWWGPRP",
    "dataValue": -0.081
  },
  {
    "sequenceChain": "RRIRWRPPRLPRPRPRPMMWPRP",
    "dataValue": 0.0342
  },
  {
    "sequenceChain": "RRIRNRPPRLPRPRPRPDAHPRP",
    "dataValue": 0.0677
  },
  {
    "sequenceChain": "RRIRLRPPRLPRPRPRPDFPPRP",
    "dataValue": 0.24
  },
  {
    "sequenceChain": "RRIRWRPPRLPRPRPRPQGSPRP",
    "dataValue": -0.00843
  },
  {
    "sequenceChain": "RRIRKRPPRLPRPRPRPYLCPRP",
    "dataValue": -0.0593
  },
  {
    "sequenceChain": "RRIRARPPRLPRPRPRPGLYPRP",
    "dataValue": -0.077
  },
  {
    "sequenceChain": "RRIRNRPPRLPRPRPRPCKYPRP",
    "dataValue": -1.14
  },
  {
    "sequenceChain": "RRIRWRPPRLPRPRPRPDMMPRP",
    "dataValue": -0.0236
  },
  {
    "sequenceChain": "RRIRSRPPRLPRPRPRPFQTPRP",
    "dataValue": -0.266
  },
  {
    "sequenceChain": "RRIRMRPPRLPRPRPRPRHHPRP",
    "dataValue": 0.415
  },
  {
    "sequenceChain": "RRIRFRPPRLPRPRPRPHTIPRP",
    "dataValue": -0.745
  },
  {
    "sequenceChain": "RRIRSRPPRLPRPRPRPHQKPRP",
    "dataValue": -0.189
  },
  {
    "sequenceChain": "RRIRRRPPRLPRPRPRPPVMPRP",
    "dataValue": 0.403
  },
  {
    "sequenceChain": "RRIRERPPRLPRPRPRPVFPPRP",
    "dataValue": 0.242
  },
  {
    "sequenceChain": "RRIRNRPPRLPRPRPRPYTFPRP",
    "dataValue": -0.0167
  },
  {
    "sequenceChain": "RRIRQRPPRLPRPRPRPYAVPRP",
    "dataValue": -0.00389
  }
]

----------
// reported shrunken log2 fold change per item
- System: Escherichia coli TOP10;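 further: peptides expressed intracellularly from a pBAD plasmid library in pooled LB shake-flask culture, induced with 0.3% L-arabinose, DNA abundance read by NGS, three biological replicates, DESeq2 with apeglm shrinkage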
- procedureText: shrunken log2 fold change of peptide-encoding DNA abundance (4.5 h post-induction vs induction); higher = less antimicrobial activity (less host growth inhibition)
- conditions: time post-induction: 4.5 h; library: site-saturation at positions 5, 18, 19, 20
testReadout: shrunken log2 fold change

[
  {
    "sequenceChain": "RRIRCRPPRLPRPRPRPANTPRP",
    "dataValue": -0.265
  },
  {
    "sequenceChain": "RRIRNRPPRLPRPRPRPEKLPRP",
    "dataValue": -0.00804
  },
  {
    "sequenceChain": "RRIRYRPPRLPRPRPRPSMLPRP",
    "dataValue": -1.07
  },
  {
    "sequenceChain": "RRIRKRPPRLPRPRPRPPCAPRP",
    "dataValue": 0.804
  },
  {
    "sequenceChain": "RRIRGRPPRLPRPRPRPKDCPRP",
    "dataValue": 0.427
  },
  {
    "sequenceChain": "RRIRHRPPRLPRPRPRPMGKPRP",
    "dataValue": -0.189
  },
  {
    "sequenceChain": "RRIRHRPPRLPRPRPRPCTAPRP",
    "dataValue": 0.0655
  },
  {
    "sequenceChain": "RRIRLRPPRLPRPRPRPLWPPRP",
    "dataValue": 0.302
  },
  {
    "sequenceChain": "RRIRWRPPRLPRPRPRPFGLPRP",
    "dataValue": 0.0452
  },
  {
    "sequenceChain": "RRIRPRPPRLPRPRPRPIKIPRP",
    "dataValue": -0.319
  },
  {
    "sequenceChain": "RRIRERPPRLPRPRPRPYPLPRP",
    "dataValue": -0.192
  },
  {
    "sequenceChain": "RRIRGRPPRLPRPRPRPQTYPRP",
    "dataValue": 0.0285
  },
  {
    "sequenceChain": "RRIRKRPPRLPRPRPRPSWGPRP",
    "dataValue": 0.00315
  },
  {
    "sequenceChain": "RRIRMRPPRLPRPRPRPGEEPRP",
    "dataValue": 3.02
  },
  {
    "sequenceChain": "RRIRFRPPRLPRPRPRPVQWPRP",
    "dataValue": 0.184
  }
]
